Item-by-item account of percent inhibition of platelet aggregation
- Tested on: rabbit platelets
- assay text: ADP induced platelet aggregation in vitro, turbidimetric method (Born and Cross, modified)
- Format: cell-based
- condition: 1 minute and 30 seconds after ADP; 50 γ; percent of ADP controls; rabbit PRP
measured quantity: percent inhibition of platelet aggregation (%)

{"compound": "CO[C@]12C[C@@H](COC(=O)c3cncc(Br)c3)CN(C)[C@@H]1Cc1cn(C)c3cccc2c13 [355/347, reference compound]", "test result": 11}
{"compound": "CO[C@]12C[C@@H](CNc3cc(C)cc(C)n3)CN(C)[C@@H]1Cc1cn(C)c3cccc2c13 [compound 897]", "test result": 31}
{"compound": "CO[C@]12C[C@@H](CNc3cc(C)ccn3)CN(C)[C@@H]1Cc1cn(C)c3cccc2c13 [compound 894]", "test result": 22}
{"compound": "CO[C@]12C[C@@H](CSc3ccc([N+](=O)[O-])cn3)CN(C)[C@@H]1Cc1cn(C)c3cccc2c13 [compound 926]", "test result": 25}
{"compound": "CO[C@]12C[C@@H](CNc3ccccn3)CN(C)[C@@H]1Cc1cn(C)c3cccc2c13 [compound 925]", "test result": 16}
{"compound": "CO[C@]12C[C@@H](CNc3ccc(Br)cn3)CN(C)[C@@H]1Cc1cn(C)c3cccc2c13 [compound 893]", "test result": 31}

* * *

// reported percent inhibition of platelet aggregation per item
- Test system: rabbit platelets
- assay text: ADP induced platelet aggregation in vitro, turbidimetric method (Born and Cross, modified)
- Format: cell-based
- condition: 3 minutes after ADP; 50 γ; percent of ADP controls; rabbit PRP
measured quantity: percent inhibition of platelet aggregation (%)

{"compound": "CO[C@]12C[C@@H](CNc3cc(C)cc(C)n3)CN(C)[C@@H]1Cc1cn(C)c3cccc2c13 [compound 897]", "system": "rabbit platelets", "test result": 22}
{"compound": "CO[C@]12C[C@@H](CNc3cc(C)ccn3)CN(C)[C@@H]1Cc1cn(C)c3cccc2c13 [compound 894]", "system": "rabbit platelets", "test result": 22}
{"compound": "CO[C@]12C[C@@H](COC(=O)c3cncc(Br)c3)CN(C)[C@@H]1Cc1cn(C)c3cccc2c13 [355/347, reference compound]", "system": "rabbit platelets", "test result": 12}
{"compound": "CO[C@]12C[C@@H](CNc3ccc(Br)cn3)CN(C)[C@@H]1Cc1cn(C)c3cccc2c13 [compound 893]", "system": "rabbit platelets", "test result": 14}
{"compound": "CO[C@]12C[C@@H](CNc3ccccn3)CN(C)[C@@H]1Cc1cn(C)c3cccc2c13 [compound 925]", "system": "rabbit platelets", "test result": 21}
{"compound": "CO[C@]12C[C@@H](CSc3ccc([N+](=O)[O-])cn3)CN(C)[C@@H]1Cc1cn(C)c3cccc2c13 [compound 926]", "system": "rabbit platelets", "test result": 13}

* * *

- System: rabbit platelets
- assay text: ADP induced platelet aggregation in vitro, turbidimetric method (Born and Cross, modified)
- Format: cell-based
- condition: 6 minutes after ADP; 50 γ; percent of ADP controls; rabbit PRP
measured quantity: percent inhibition of platelet aggregation (%)

{"compound": "CO[C@]12C[C@@H](CNc3cc(C)cc(C)n3)CN(C)[C@@H]1Cc1cn(C)c3cccc2c13", "system": "rabbit platelets", "readout units": "%", "test result": 25}
{"compound": "CO[C@]12C[C@@H](CNc3ccccn3)CN(C)[C@@H]1Cc1cn(C)c3cccc2c13", "system": "rabbit platelets", "readout units": "%", "test result": 30}
{"compound": "CO[C@]12C[C@@H](COC(=O)c3cncc(Br)c3)CN(C)[C@@H]1Cc1cn(C)c3cccc2c13 [355/347, reference compound]", "system": "rabbit platelets", "readout units": "%", "test result": 22}
{"compound": "CO[C@]12C[C@@H](CNc3cc(C)ccn3)CN(C)[C@@H]1Cc1cn(C)c3cccc2c13", "system": "rabbit platelets", "readout units": "%", "test result": 29}
{"compound": "CO[C@]12C[C@@H](CSc3ccc([N+](=O)[O-])cn3)CN(C)[C@@H]1Cc1cn(C)c3cccc2c13", "system": "rabbit platelets", "readout units": "%", "test result": 17}
{"compound": "CO[C@]12C[C@@H](CNc3ccc(Br)cn3)CN(C)[C@@H]1Cc1cn(C)c3cccc2c13", "system": "rabbit platelets", "readout units": "%", "test result": 7}
